biological target: the molecule itself; assay: SEC
Readout Kind: stoichiometry N

Protein: Axe2 triple mutant Tyr184Phe-Arg205Ala-Trp215Ala (enzyme) MKIGSGEKLLFIGDSITDCGRARPEGEGSFGALGTGYVAYVVGLLQAVYPELGIRVVNKGISGNTVRDLKARWEEDVIAQKPDWVSIMIGINDVWRQYDLPFMKEKHVYLDEYEATLRSLVLETKPLVKGIILMTPFYIEGNEQDPMRRTMDQYGRVVKQIAEETNSLFVDTQAAFNEVLKTLFPAALAWDRVHPSVAGHMILAAAFLREIGFEAVRSR
Observed Value: 2
--
Protein: Axe2 acetyl-xylo-oligosaccharide esterase from Geobacillus stearothermophilus, wild type (enzyme) MKIGSGEKLLFIGDSITDCGRARPEGEGSFGALGTGYVAYVVGLLQAVYPELGIRVVNKGISGNTVRDLKARWEEDVIAQKPDWVSIMIGINDVWRQYDLPFMKEKHVYLDEYEATLRSLVLETKPLVKGIILMTPFYIEGNEQDPMRRTMDQYGRVVKQIAEETNSLFVDTQAAFNEVLKTLYPAALAWDRVHPSVAGHMILARAFLREIGFEWVRSR
Observed Value: 8
